test system: H. pylori SS1; experiment: H. pylori IC50 dose response; format: cell-based; conditions: Helicobacter pylori, SS1
METRIC NAME: pIC50
The value called pIC50 is obtained by taking minus log10 of the concentration in mol/L.

COc1ccc([C@@H](CO)Nc2ncnc3sc(-c4ccccc4)cc23)cc1 [Compound 27]; 6.96

For COc1ccc([C@H](CO)Nc2ncnc3sc(-c4ccccc4)cc23)cc1 [Compound 26] , what is its reported pIC50?
8.17

* * *

system: H. pylori ATCC 43504; assay: H. pylori IC50 dose response; type: cell-based; details: Helicobacter pylori, ATCC43504
IC50 strictly less than 20 nM = criterion met. Otherwise criterion not met.

COc1ccc(CCNc2ncnc3sc(-c4ccccc4)cc23)cc1OC; criterion not met
COc1ccc([C@@H](CO)Nc2ncnc3sc(-c4ccccc4)cc23)cc1; criterion not met
COc1ccc([C@H](CO)Nc2ncnc3sc(-c4ccccc4)cc23)cc1; criterion met

# strict comparison: is reported IC50 < 20 nM? input = COc1ccc(C(CO)Nc2ncnc3sc(-c4ccccc4)cc23)cc1 (centres unmarked)
criterion not met

# strict comparison: is reported IC50 < 20 nM? input = `OC[C@H](Nc1ncnc2sc(-c3ccccc3)cc12)c1ccccc1`
criterion not met

* * *

assay: Cytotoxicity assay; assay type: cell-based; settings: human, FaDu cells
IC50 at 72 h strictly less than 100 µM = Met. Otherwise Not met.

Example entries begin here.
OCCCNc1ncnc2sc(-c3ccccc3)cc12 [Compound 1]; Not met
CC(O)CNc1ncnc2sc(-c3ccccc3)cc12 (stereo not shown) [Compound 11]; Met
CCC(CO)Nc1ncnc2sc(-c3ccccc3)cc12 (stereo not shown) [Compound 16]; Met
COCC(C)Nc1ncnc2sc(-c3ccccc3)cc12 (stereo not shown) [Compound 14]; Met
COc1ccc(C(CO)Nc2ncnc3sc(-c4ccccc4)cc23)cc1 (stereo not shown) [Compound 25]; Not met

# strict comparison: is reported IC50 at 72 h < 100 µM? input = CCC(O)CNc1ncnc2sc(-c3ccccc3)cc12 (stereo not shown) [Compound 17]
Met

# strict comparison: is reported IC50 at 72 h < 100 µM? input = C[C@H](CO)Nc1ncnc2sc(-c3ccccc3)cc12 [Compound 13]
Met

# strict comparison: is reported IC50 at 72 h < 100 µM? input = C[C@@H](CO)Nc1ncnc2sc(-c3ccccc3)cc12 [Compound 12]
Not met

* * *

assay: Cytotoxicity assay; assay type: cell-based; conditions: human, FaDu cells
METRIC NAME: IC50 at 72 h

Some solved cases for reference:
COc1ccc(CCNc2ncnc3sc(-c4ccccc4)cc23)cc1OC [Compound 19]; 126 µM
Cc1sc2ncnc(N[C@@H](CO)c3ccccc3)c2c1-c1ccccc1 [Compound 39]; 126 µM
OC[C@H](Nc1ncnc2scc(-c3ccccc3)c12)c1ccccc1 [Compound 40]; 31.6 µM
c1ccc(-c2cc3c(NCCc4ccncc4)ncnc3s2)cc1 [Compound 21]; 126 µM
COc1ccc([C@@H](CO)Nc2ncnc3sc(-c4ccccc4)cc23)cc1 [Compound 27]; 50.1 µM
Cc1ccc(CCNc2ncnc3sc(-c4ccccc4)cc23)cc1C [Compound 20]; < 15.8 µM
OCCCCNc1ncnc2sc(-c3ccccc3)cc12 [Compound 15]; 126 µM
OC[C@H](Nc1ncnc2sc(-c3ccccc3)cc12)c1ccccc1 [Compound 28]; < 20 µM

For COc1ccc([C@H](CO)Nc2ncnc3sc(-c4ccccc4)cc23)cc1 [Compound 26] , what is its reported IC50 at 72 h?
15.8 µM

* * *

test system: H. pylori ATCC 43504; assay: H. pylori IC50 dose response; assay type: cell-based; conditions: Helicobacter pylori, ATCC43504, read-out: H. pylori ATCC 43504 pIC50 (converted)
IC50 strictly less than 1000 nM = 1. Otherwise -1.

COCC(C)Nc1ncnc2sc(-c3ccccc3)cc12 (stereo not drawn) [Compound 14]; -1
CC(C)C(CO)Nc1ncnc2sc(-c3ccccc3)cc12 (stereo not drawn) [Compound 18]; -1
COc1ccc([C@H](CO)Nc2ncnc3sc(-c4ccccc4)cc23)cc1F [Compound 30]; 1
OCCCCNc1ncnc2sc(-c3ccccc3)cc12 [Compound 15]; -1
COc1ccc([C@@H](CO)Nc2ncnc3sc(-c4ccccc4)cc23)cc1 [Compound 27]; 1

# strict comparison: is reported IC50 < 1000 nM? input = OC[C@H](Nc1ncnc2scc(-c3ccccc3)c12)c1ccccc1 [Compound 40]
-1

# strict comparison: is reported IC50 < 1000 nM? input = CCC(O)CNc1ncnc2sc(-c3ccccc3)cc12 (stereo not drawn) [Compound 17]
1

# strict comparison: is reported IC50 < 1000 nM? input = OCCCNc1ncnc2sc(-c3ccccc3)cc12 [Compound 1]
-1

* * *

test: Mouse pharmacokinetics; assay type: in vivo, mice; settings: mouse, plasma, ip, 50 mg/kg
METRIC NAME: AUC
Answer as a quantity: numeral, then unit.

For COc1ccc(C(CO)Nc2ncnc3sc(-c4ccccc4)cc23)cc1 (stereo not shown) , what is its reported AUC?
31900 ng·h/mL

* * *

test system: H. pylori ATCC 43504; experiment: H. pylori IC50 dose response; assay type: cell-based; details: Helicobacter pylori, ATCC43504, read-out: H. pylori ATCC 43504 pIC50 (converted)
IC50 strictly less than 200 nM = TRUE. Otherwise FALSE.

Example entries begin here.
C[C@H](CO)Nc1ncnc2sc(-c3ccccc3)cc12 [Compound 13]; TRUE
c1ccc(-c2cc3c(NCCc4ccncc4)ncnc3s2)cc1 [Compound 21]; FALSE
COc1ccc([C@H](CO)Nc2ncnc3sc(-c4ccccc4)cc23)c(F)c1 [Compound 29]; TRUE
COc1ccc([C@H](CN)Nc2ncnc3sc(-c4ccccc4)cc23)cc1F [Compound 31]; FALSE
C[C@@H](CO)Nc1ncnc2sc(-c3ccccc3)cc12 [Compound 12]; FALSE
c1ccc(-c2cc3c(NCCc4cccnc4)ncnc3s2)cc1 [Compound 22]; FALSE

# strict comparison: is reported IC50 < 200 nM? input = Cc1sc2ncnc(N[C@@H](CO)c3ccccc3)c2c1C [Compound 37]
FALSE

# strict comparison: is reported IC50 < 200 nM? input = CC(CO)Nc1ncnc2sc(-c3ccccc3)cc12 (centres unmarked) [Compound 10]
TRUE

# strict comparison: is reported IC50 < 200 nM? input = Cc1c(-c2ccccc2)sc2ncnc(N[C@@H](CO)c3ccccc3)c12 [Compound 38]
FALSE

# strict comparison: is reported IC50 < 200 nM? input = COc1ccc(C(CO)Nc2ncnc3sc(-c4ccccc4)cc23)cc1 (centres unmarked) [Compound 25]
TRUE

* * *

assay: Cytotoxicity assay; format: cell-based; details: human, FaDu cells
METRIC NAME: IC50 at 72 h (µM)
Respond with the bare value in µM.

For `OCCNc1ncnc2sc(-c3ccccc3)cc12` , what is its reported IC50 at 72 h?
100

For CC(C)C(CO)Nc1ncnc2sc(-c3ccccc3)cc12 (stereo not shown) , what is its reported IC50 at 72 h?
50.1

For CC(CO)Nc1ncnc2sc(-c3ccccc3)cc12 (stereo not shown) , what is its reported IC50 at 72 h?
100

For COc1ccc(CC(CO)Nc2ncnc3sc(-c4ccccc4)cc23)cc1 (stereo not shown) , what is its reported IC50 at 72 h?
15.8

For `COc1ccc([C@H](CO)Nc2ncnc3sc(-c4ccccc4)cc23)cc1F` , what is its reported IC50 at 72 h?
31.6

For `COc1ccc([C@H](CO)Nc2ncnc3sc(-c4ccccc4)cc23)c(F)c1` , what is its reported IC50 at 72 h?
31.6

For `COc1ccc([C@H](CN)Nc2ncnc3sc(-c4ccccc4)cc23)cc1F` , what is its reported IC50 at 72 h?
50.1

For `COc1cccc(CNc2ncnc3sc(-c4ccccc4)cc23)c1OC` , what is its reported IC50 at 72 h?
25.1

For `Cc1c(-c2ccccc2)sc2ncnc(N[C@@H](CO)c3ccccc3)c12` , what is its reported IC50 at 72 h?
20

* * *

test: Solubility; format: physicochemical
METRIC NAME: solubility

For COc1ccc(C(CO)Nc2ncnc3sc(-c4ccccc4)cc23)cc1 (stereo not shown) , what is its reported solubility?
1 µM

* * *

tested on: H. pylori ATCC 43504; assay: H. pylori IC50 dose response; type: cell-based; conditions: Helicobacter pylori, ATCC43504, read-out: H. pylori ATCC 43504 pIC50 (converted)
Kindly note that classification relies on IC50 with these boundaries: class 1 = under 100 nM, class 2 = from 100 nM up to 2000 nM, class 3 = 2000 nM and over

Example entries begin here.
COc1ccc(CCNc2ncnc3sc(-c4ccccc4)cc23)cc1OC; class 2
OC[C@H](Nc1ncnc2sc(-c3ccccc3)cc12)c1ccccc1; class 1
OCCNc1ncnc2sc(-c3ccccc3)cc12; class 3
COc1ccc([C@H](CO)Nc2ncnc3sc(-c4ccccc4)cc23)cc1; class 1
COc1cccc(CNc2ncnc3sc(-c4ccccc4)cc23)c1OC; class 2
CN(CCCO)c1ncnc2sc(-c3ccccc3)cc12; class 3
Cc1sc2ncnc(N[C@@H](CO)c3ccccc3)c2c1-c1ccccc1; class 3
Cc1ccc(CCNc2ncnc3sc(-c4ccccc4)cc23)cc1C; class 1

Pending molecule:
State the class of the molecule shown: COc1ccc(CC(CO)Nc2ncnc3sc(-c4ccccc4)cc23)cc1 (stereo not shown)
class 2
